This collection of values is drawn from patent US20130172248A1.

- ASSAYED_TARGET: GPCR GPR40 (human) (Homo sapiens)
- Sequence (O14842 whole entry): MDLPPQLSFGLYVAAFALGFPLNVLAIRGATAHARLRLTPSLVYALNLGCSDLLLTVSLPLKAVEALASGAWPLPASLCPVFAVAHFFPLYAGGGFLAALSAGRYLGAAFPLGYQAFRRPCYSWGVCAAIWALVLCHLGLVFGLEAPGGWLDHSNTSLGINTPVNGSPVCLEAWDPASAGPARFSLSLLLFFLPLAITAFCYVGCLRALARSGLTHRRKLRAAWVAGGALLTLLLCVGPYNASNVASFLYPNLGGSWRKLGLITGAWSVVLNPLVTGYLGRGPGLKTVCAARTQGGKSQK
- TEST_NAME: In vitro FLIPR assay with recombinant HEK293 cells which express the GPCR GPR40 (intracellular Ca2+)
- CONDITION_SET: recombinant HEK293 cells expressing human GPR40; 100% = 10 μM linoleic acid reference agonist; read-out: hGPR40 EC50
pEC50: −log10 of the molar value.
ASSAY_READOUT: pEC50

> print(dat)
                                   molecule  assay.readout  value.observed
1  CC#C[C@H](CC(=O)O)c1ccc(NC(=O)C(=O)Nc2cccc(C(C)C)c2)cc1 [compound 9, reference compound]          pEC50            5.68
2  CC#C[C@@H](CC(=O)O)c1ccc(NC(=O)C(=O)Nc2cc(C(F)(F)F)ccc2Cl)cc1 [Example 5]          pEC50            8.70
3  CC#C[C@H](CC(=O)O)c1ccc(NC(=O)C(=O)Nc2cccc(C(C)(C)C)c2)cc1 [compound 7, reference compound]          pEC50            5.81
